System: KASUMI-9;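 also: ALL cell lines in 384-well plates, five doses spanning 10,000-fold, each plate scaled between vehicle and 100 µmol/L benzalkonium chloride controls, sDSS an adapted area-under-curve metric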
Assay: selective drug sensitivity score (sDSS, relative to normal bone marrow) (sDSS (score)); higher = more potent and effective on the cell line relative to normal bone marrow cells
Conditions: 72 h
Kindly return Met if reported selective drug sensitivity score is no lower than 0.4; return Not met if it is lower.

| compound | label |
| --- | --- |
| CN1CCN(C(=O)c2ccc3cc(CCNc4ncnc5ccc(C#N)cc45)ccc3c2)CC1 [Senexin_B] (top concentration 1000 nM) | Not met |
| CCN(CC)CCNC(=O)c1c(C)[nH]c(/C=C2\C(=O)Nc3ccc(F)cc32)c1C [Sunitinib] (top concentration 1000 nM) | Met |
| Cc1nc(Nc2n[nH]c3c2CN(C(=O)N[C@H](CN(C)C)c2ccccc2)C3(C)C)c2sccc2n1 (top concentration 10000 nM) | Met |
| COc1cccc2c1C(=O)c1c(O)c3c(c(O)c1C2=O)C[C@@](O)(C(=O)CO)C[C@@H]3O[C@H]1C[C@H](N)[C@@H](O)[C@H](C)O1 [Epirubicin] (top concentration 1000 nM) | Met |
| O=C(O)c1ccc2c(c1)nc(Nc1cccc(Cl)c1)c1ccncc12 [Silmitasertib] (top concentration 10000 nM) | Met |
| O=C(Nc1ccc2[nH]nc(-c3ccncc3)c2c1)[C@@H]1CCN(CC(=O)N2CCN(c3ccc(-c4ncccn4)cc3)CC2)C1 (top concentration 10000 nM) | Not met |
